Tested system: IFN-gamma (Homo sapiens, UniProt P01579 P01579:24-161)
Sequence (P01579 24-161, one chain of several): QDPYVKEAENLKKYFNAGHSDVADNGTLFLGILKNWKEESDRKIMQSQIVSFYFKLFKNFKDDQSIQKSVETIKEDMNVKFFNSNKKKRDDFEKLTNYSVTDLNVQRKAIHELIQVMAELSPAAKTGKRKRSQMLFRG
Assay comment: filter; biphasic 6.8/320 nM; mPBS 1 mM Mg, 0.01% HSA, 37 C
Experimental conditions: tags: Genzyme (Cambridge MA); Upstate Biotechnology for early SELEX rounds; chain copies: 2 inferred
Recorded metric: Kd (nM)
Give the number; nM is assumed, so skip it.

Endpoint output: Kd of IFN-gamma 2'F-1 (ssRNA, 2'-F all C and U) RNA: GGGAGGACGAUGCGGACACCGUUAAUCUGAGGCCCUGUCCUAUUCCUUCACGCCUCAGACGACUCGCCCGA . Value?
6.8
